All values here come from patent US20240123070A1.

Molecular target: T1, KRAS G13D (G13D-RT6) peptide on HLA-DQA1*05:01 / HLA-DQB1*03:01 (human)
T1 chain: YKLVVVGAGDVGKSAL
Assay: NFAT-luciferase; Jurkat-NFAT-Luc with the TCR and Lovo-DPA0301:DPB0501 cells loaded with G13D-RT6; against wild-type B8.2.4 TCR; full-length, on cells
Settings: chains Valpha:Vbeta
This listing pairs binders with measured TCR Mut RLU/WT RLU.

Would you please look over these solved cases?
{"columns": ["binder", "TCR Mut RLU/WT RLU"],
 "data": [
  ["B8.2.4 TCR mutant β95Q-D (protein) chain 1: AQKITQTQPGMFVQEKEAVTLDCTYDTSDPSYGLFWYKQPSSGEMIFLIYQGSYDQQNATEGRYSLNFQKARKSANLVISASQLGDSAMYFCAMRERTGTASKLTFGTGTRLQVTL chain 2: DVKVTQSSRYLVKRTGEKVFLECVQDMDHENMFWYRQDPGLGLRLIYFSYDVKMKEKGDIPEGYSVSREKKERFSLILESASTNQTSMYLCASSDTVPPQHFGDGTRLSIL", 0.6],
  ["B8.2.4 TCR mutant β98P-W (protein) chain 1: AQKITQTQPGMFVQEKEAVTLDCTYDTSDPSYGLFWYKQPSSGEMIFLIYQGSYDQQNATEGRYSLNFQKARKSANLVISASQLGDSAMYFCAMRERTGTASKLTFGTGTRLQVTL chain 2: DVKVTQSSRYLVKRTGEKVFLECVQDMDHENMFWYRQDPGLGLRLIYFSYDVKMKEKGDIPEGYSVSREKKERFSLILESASTNQTSMYLCASSQTVWPQHFGDGTRLSIL", 0.81]
]}

Read the next record carefully.
Q. Which TCR Mut RLU/WT RLU reading was recorded for the binder B8.2.4 TCR mutant β98P-H (protein) chain 1: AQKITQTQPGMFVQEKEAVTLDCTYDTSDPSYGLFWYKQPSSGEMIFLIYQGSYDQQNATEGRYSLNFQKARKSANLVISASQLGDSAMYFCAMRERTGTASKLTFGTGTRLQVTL chain 2: DVKVTQSSRYLVKRTGEKVFLECVQDMDHENMFWYRQDPGLGLRLIYFSYDVKMKEKGDIPEGYSVSREKKERFSLILESASTNQTSMYLCASSQTVHPQHFGDGTRLSIL ?
A. 0.6
